Form field: solubility (one value per entry).
# method-notes: Solubility of compound
# Format: physicochemical
Only the number, expressed in µM, is required.

Query :: Returns the measured solubility for the input molecule. Input: Cc1ccc(C(=O)Nc2cccc(C(F)(F)F)c2)cc1-c1ccc2c(-c3cnn(C4CC4)c3)n[nH]c2c1
Result :: 2

More entries:
Query :: I have this molecule here, Cc1ccc(C(=O)Nc2cc(CN3CCN(C)CC3)cc(C(F)(F)F)c2)cc1-c1ccc2c(-c3cnn(C4CC4)c3)n[nH]c2c1 , and I need its recorded solubility.
Result :: 10

* * *

# method-notes: Efflux ratio of permeability in human Caco2 cells at 5 uM after 120 mins by LC-MS/MS analysis
# Type: ADME, cell-based
# run-conditions: Caco-2
The following compounds are listed with their measured efflux ratio at 2 h, 5 µM values.

Query :: // query efflux ratio at 2 h, 5 µM value for entry Cc1ccc(C(=O)Nc2cc(CN3CCN(C)CC3)cc(C(F)(F)F)c2)cc1-c1ccc2c(-c3cnn(C4CC4)c3)n[nH]c2c1
Result :: 42.7

Attention now turns to another entry.
Query :: May I ask what efflux ratio at 2 h, 5 µM has been recorded for Cc1ccc(C(=O)Nc2cccc(C(F)(F)F)c2)cc1-c1ccc2c(-c3cnn(C4CC4)c3)n[nH]c2c1 ?
Result :: 1.1

* * *

# target-of-assay: Discoidin domain-containing receptor 2 (Homo sapiens)
# method-notes: Inhibition of DDR2 (unknown origin) at 1000 nM using poly (Glu, Tyr) 4:1 substrate after 60 mins by ELISA relative to control
Binary classification by inhibition, with 40% as an inclusive lower bound for 1; all other cases are 0.

Query :: Has Cn1ncc2ccc(-c3cccc(NC(=O)c4cccc(C(F)(F)F)c4)c3)cc21 a recorded inhibition greater than or equal to 40%?
Result :: 0

Query :: Check O=C(Nc1cccc(-c2ccc3cn[nH]c3c2)c1)Nc1cccc(C(F)(F)F)c1 too.
Result :: 1

More entries:
Query :: Has Nc1n[nH]c2ccc(-c3cccc(NC(=O)c4cccc(C(F)(F)F)c4)c3)cc12 a recorded inhibition greater than or equal to 40%?
Result :: 0

Query :: O=C(Nc1cccc(C(F)(F)F)c1)c1cccc(-c2ccc3cn[nH]c3c2)c1 ?
Result :: 1

Query :: Check Nc1n[nH]c2cc(-c3cccc(NC(=O)c4cccc(C(F)(F)F)c4)c3)ccc12 too.
Result :: 0

* * *

# System: NCI-H2286
# method-notes: Antiproliferative activity against human NCI-H2286 cells after 72 hrs by CCK8 assay
# run-conditions: NCI-H2286, 72 h
Label Fulfilled when IC50 is strictly below 0.07 µM; at or above that, label Not fulfilled.

Query :: # TODO verify IC50 < 0.07 µM strictly for this compound: Cc1ccc(C(=O)Nc2cccc(C(F)(F)F)c2)cc1-c1ccc2c(-c3ccc(N4CCN(C)CC4)cc3)n[nH]c2c1
Result :: Not fulfilled

Query :: Follow-up entry: Cc1ccc(C(=O)Nc2cccc(C(F)(F)F)c2)cc1-c1ccc2c(-c3cnn(C4CCN(C)CC4)c3)n[nH]c2c1
Result :: Fulfilled

Query :: Can you check Cc1ccc(C(=O)Nc2cccc(C(F)(F)F)c2)cc1-c1ccc2c(-c3cnn(CC(C)O)c3)n[nH]c2c1 (stereo not given) next?
Result :: Not fulfilled

Query :: Repeat with CCn1cc(-c2n[nH]c3cc(-c4cc(C(=O)Nc5cccc(C(F)(F)F)c5)ccc4C)ccc23)cn1
Result :: Fulfilled

Query :: Another compound to look at: Cc1ccc(C(=O)Nc2cccc(C(F)(F)F)c2)cc1-c1ccc2c(-c3ccc(N4CCOCC4)cc3)n[nH]c2c1
Result :: Not fulfilled

Query :: Item: Cc1ccc(C(=O)Nc2cccc(C(F)(F)F)c2)cc1-c1ccc2c(-c3cnn(CC(=O)N(C)C)c3)n[nH]c2c1
Result :: Not fulfilled

Query :: Moving on to Cc1ccc(C(=O)Nc2cccc(C(F)(F)F)c2)cc1-c1ccc2c(-c3cn[nH]c3)n[nH]c2c1
Result :: Not fulfilled

Query :: Same thing, different compound: Cc1ccc(C(=O)Nc2cccc(C(F)(F)F)c2)cc1-c1ccc2c(-c3cnn(C)c3)n[nH]c2c1
Result :: Fulfilled

Query :: Same thing, different compound: Cc1ccc(C(=O)Nc2cccc(C(F)(F)F)c2)cc1-c1ccc2c(-c3cnn(C4CC4)c3)n[nH]c2c1
Result :: Not fulfilled
